For each record, write down the corresponding percent cells in G1 phase.
- System: HeLa
- protocol-description: percent cells in G1 phase; higher = more G1 arrest
- experimental-parameters: 10 µM; 20 h; hit class: G1-phase inhibitor
The answer consists of two parts: a number and, after it, its unit.

Reference set (4 entries):
compound	system-under-test	result
C/C(=C\c1ccc(Cl)cc1)[N+](=O)[O-]	HeLa	69.2%
CNC1CC2OC(C)(C1OC)n1c3ccccc3c3c4c(c5c6ccccc6n2c5c31)C(=O)NC4 (configuration not stated)	HeLa	86.7%
CC(C)(C)c1cc(C=C(C#N)C#N)cc(C(C)(C)C)c1O	HeLa	75.1%
C/C=C(/C)C(=O)O[C@H]1C(C)=C2[C@H]([C@@H]1OC(=O)CCCCCCC)[C@@](C)(OC(C)=O)C[C@H](OC(=O)CCC)[C@@]1(O)[C@H]2OC(=O)[C@@]1(C)O	HeLa	81.5%

// input: 3 compounds below; output: percent cells in G1 phase for each
1. C[C@@H]1C[C@@H]([C@H](O)CC2CC(=O)NC(=O)C2)C(=O)[C@@H](C)C1 [Cycloheximide]
2. C[C@@H]1O[C@@H](O[C@H]2C[C@@H](O)[C@]3(CO)[C@H]4[C@H](O)C[C@]5(C)[C@@H](C6=CC(=O)OC6)CC[C@]5(O)[C@@H]4CC[C@]3(O)C2)[C@H](O)[C@H](O)[C@H]1O
3. C[C@@]12C(=O)OC(=O)[C@]1(C)[C@H]1CC[C@@H]2O1

["77%", "70.1%", "70.6%"]

* * *

- Test system: HeLa
- protocol-description: percent cells in S phase; higher = more S arrest
- experimental-parameters: 10 µM; 20 h; hit class: G1-phase inhibitor
metric: percent cells in S phase
The answer consists of two parts: a number and, after it, its unit.

Reference set (4 entries):
> print(dat)
                                   molecule  result
1          C/C(=C\c1ccc(Cl)cc1)[N+](=O)[O-]   4.01%
2  C[C@@]12C(=O)OC(=O)[C@]1(C)[C@H]1CC[C@@H]2O1   8.95%
3  CNC1CC2OC(C)(C1OC)n1c3ccccc3c3c4c(c5c6ccccc6n2c5c31)C(=O)NC4 (stereo not given)    5.4%
4  C[C@@H]1C[C@@H]([C@H](O)CC2CC(=O)NC(=O)C2)C(=O)[C@@H](C)C1 [Cycloheximide]   6.83%

Now, please, on to the next molecule.
Identify measured percent cells in S phase corresponding to `CNc1ccc2oc(C[C@H]3O[C@@]4(CC[C@H]3C)O[C@H]([C@H](C)C(=O)c3ccc[nH]3)[C@H](C)C[C@H]4C)nc2c1C(=O)O`
6.33%

The measured values listed here are drawn from the supplement of paper PMC4237247.
